biological target: UniProt P17252; test: Displacement of [3H]PDBu from protein kinase C alpha at 100 uM; Range 60 to 80
experimental-readout: inhibition (%)

>  <molecule-smiles>
CC(=O)OC[C@@]1(CO)OC(=O)c2c(OCCCCCCCCCCCCOc3cccc4c3C(=O)O[C@]4(CO)COC(C)=O)cccc21

>  <experimental-readout>
inhibition

>  <readout-number>
70

$$$$
>  <molecule-smiles>
CCCCCCCCCCCCOc1cccc2c1C(=O)O[C@]2(CO)COC(C)=O

>  <experimental-readout>
inhibition

>  <readout-number>
70

$$$$
>  <molecule-smiles>
O=C(CCCCCCCCCCC(=O)OC[C@@]1(CO)OC(=O)c2c(OCc3ccccc3)cccc21)CC[C@@]1(CO)OC(=O)c2c(OCc3ccccc3)cccc21

>  <experimental-readout>
inhibition

>  <readout-number>
70

$$$$
>  <molecule-smiles>
O=C(CCCCCCCCCCCCC(=O)OC[C@@]1(CO)OC(=O)c2c(OCc3ccccc3)cccc21)CC[C@@]1(CO)OC(=O)c2c(OCc3ccccc3)cccc21

>  <experimental-readout>
inhibition

>  <readout-number>
70

$$$$

====

target: Protein kinase C alpha type (Homo sapiens) (UniProt P17252); assay: Displacement of [3H]PDBu from protein kinase C alpha at 100 uM; Range 0 to 20
experimental-readout: inhibition (%)

>  <molecule-smiles>
CC(=O)OC[C@@]1(CO)OC(=O)c2c(OCCCCCCCCCCCCCCCCCCCCCCCCOc3cccc4c3C(=O)O[C@]4(CO)COC(C)=O)cccc21

>  <tested-system>
Protein kinase C alpha type (Homo sapiens) (UniProt P17252)

>  <measurement-unit>
%

>  <readout-number>
19

$$$$

P: O=C(CCCCC(=O)OC[C@@]1(CO)OC(=O)c2c(OCc3ccccc3)cccc21)CC[C@@]1(CO)OC(=O)c2c(OCc3ccccc3)cccc21
Q: O=C(CCCCCCCCCCCCCCCCCCC(=O)OC[C@@]1(CO)OC(=O)c2c(OCc3ccccc3)cccc21)CC[C@@]1(CO)OC(=O)c2c(OCc3ccccc3)cccc21
R: O=C(CC[C@@]1(CO)OC(=O)c2c(OCc3ccccc3)cccc21)c1cccc(C(=O)OC[C@@]2(CO)OC(=O)c3c(OCc4ccccc4)cccc32)c1
S: O=C(CC[C@@]1(CO)OC(=O)c2c(OCc3ccccc3)cccc21)c1ccc(C(=O)OC[C@@]2(CO)OC(=O)c3c(OCc4ccccc4)cccc32)cc1
Enquiry: Order by inhibition, ascending. List the labels in the requested order.
Return: S, R, Q, P
(S: 2%, R: 4%, Q: 10%, P: 18%)

A: O=C(CCCCCCC(=O)OC[C@@]1(CO)OC(=O)c2c(OCc3ccccc3)cccc21)CC[C@@]1(CO)OC(=O)c2c(OCc3ccccc3)cccc21
B: O=C(CC[C@@]1(CO)OC(=O)c2c(OCc3ccccc3)cccc21)c1ccccc1C(=O)OC[C@@]1(CO)OC(=O)c2c(OCc3ccccc3)cccc21
Enquiry: Which has the higher inhibition, A or B ? Please indicate the selected item by its label.
Return: A
(A: 19%, B: 4%)

====

molecular target: UniProt P17252; assay: Displacement of [3H]PDBu from protein kinase C alpha at 100 uM; Range 40 to 60
experimental-readout: inhibition (%)

>  <molecule-smiles>
CC(=O)OC[C@@]1(CO)OC(=O)c2c(OCCCCCCCCCCOc3cccc4c3C(=O)O[C@]4(CO)COC(C)=O)cccc21

>  <measurement-unit>
%

>  <readout-number>
45

$$$$
>  <molecule-smiles>
CC(=O)OC[C@@]1(CO)OC(=O)c2c(OCCCCCCCCCOc3cccc4c3C(=O)O[C@]4(CO)COC(C)=O)cccc21

>  <measurement-unit>
%

>  <readout-number>
42

$$$$
>  <molecule-smiles>
O=C(CCCCCCCCC(=O)OC[C@@]1(CO)OC(=O)c2c(OCc3ccccc3)cccc21)CC[C@@]1(CO)OC(=O)c2c(OCc3ccccc3)cccc21

>  <measurement-unit>
%

>  <readout-number>
41

$$$$
>  <molecule-smiles>
CC(=O)OC[C@@]1(CO)OC(=O)c2c(OCCCCCCCCCCCOc3cccc4c3C(=O)O[C@]4(CO)COC(C)=O)cccc21

>  <measurement-unit>
%

>  <readout-number>
60

$$$$
>  <molecule-smiles>
O=C(CCCCCCCCCCCCCCC(=O)OC[C@@]1(CO)OC(=O)c2c(OCc3ccccc3)cccc21)CC[C@@]1(CO)OC(=O)c2c(OCc3ccccc3)cccc21

>  <measurement-unit>
%

>  <readout-number>
54

$$$$
